Test system: ATP;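 further: ATP exposure 15 min at 22 °C before imaging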
Assay: switch fluorescence ratio, 500 uM ATP over buffer (Cy3 cluster intensity, sum of 5 cycles each) (fold (ratio)); higher = stronger signal-on switching upon ATP binding; sequences stand for … in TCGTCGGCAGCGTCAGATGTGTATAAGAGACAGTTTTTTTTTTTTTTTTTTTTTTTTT…TC
Details: aptamer strand: ATP DNA aptamer (quencher-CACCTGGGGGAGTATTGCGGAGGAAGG + anchor), 100 nM annealed; ATP concentration: 500 uM
Parameter threshold = 1. Response is 1.0 when switch fluorescence ratio meets or exceeds it, else 0.0.

TGTCAGTGCG: 0.0
TCGTATTACG: 1.0
TTCATCTCGC: 1.0

Proceed to the following item.
Hi, just wondering whether ACCCTCGAGA shows switch fluorescence ratio of 1 or higher.
1.0

---

Tested on: ATP;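 further: ATP exposure 15 min at 22 °C before imaging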
Test: switch fluorescence ratio, 500 uM ATP over buffer (Cy3 cluster intensity, sum of 5 cycles each) (fold (ratio)); higher = stronger signal-on switching upon ATP binding; sequences stand for … in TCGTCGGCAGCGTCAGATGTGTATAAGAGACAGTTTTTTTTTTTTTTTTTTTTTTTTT…TC
Conditions: aptamer strand: ATP DNA aptamer (quencher-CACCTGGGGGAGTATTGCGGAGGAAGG + anchor), 100 nM annealed; ATP concentration: 500 uM
Catalogue of switch fluorescence ratio values
Lab note: write the figure by itself, no unit.

// below: answered sequences
GGTCGGGGCA: 1.02
CTCGGATAGC: 1.02
TTTTCGGCGT: 1.01

Look up and state reported switch fluorescence ratio for GTCAGAGTGG
0.991

Item TCAGGGTAGC : provide switch fluorescence ratio
1.02

Identify measured switch fluorescence ratio corresponding to TTAATTTATT
0.987

Complete the entry with switch fluorescence ratio for GGGGTTGGGT
1.03

Indicate the recorded switch fluorescence ratio value for this sequence: GTGGGATGGG
0.973

---

Tested on: ATP;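 further: ATP exposure 15 min at 22 °C before imaging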
Test: switch fluorescence ratio, 500 uM ATP over buffer (Cy3 cluster intensity, sum of 5 cycles each) (fold (ratio)); higher = stronger signal-on switching upon ATP binding; sequences stand for … in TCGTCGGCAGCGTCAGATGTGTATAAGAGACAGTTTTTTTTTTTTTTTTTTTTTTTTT…TC
Settings: aptamer strand: ATP DNA aptamer (quencher-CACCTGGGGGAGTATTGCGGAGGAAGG + anchor), 100 nM annealed; ATP concentration: 500 uM
Measured switch fluorescence ratio, listed per entry for reference.
Lab note: jot down the number only; don't add units.

Examples from the recorded data:
GACTGGATAG: 0.983
AATTGTGAGT: 0.985
GCCTCCAGTT: 1.15
TTATGGTTAG: 1.01
GGTGAAAGCT: 1.04
GGGTTTTGGA: 0.998
GGGTAGGAGG: 0.982
AACTTTTAGT: 0.994
AGCTGTTTGG: 1
TTGGTTTCAT: 1.01

Name the value of switch fluorescence ratio reported for CGCCAAATTT when tested on ATP.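 Further: ATP exposure 15 min at 22 °C before imaging.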
1.07

Name the value of switch fluorescence ratio reported for CGTGCGGATG when tested on ATP.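 Further: ATP exposure 15 min at 22 °C before imaging.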
1.02

# lookup: ATP switch fluorescence ratio, key = ATGCGTACTT
1.01

---

Tested on: ATP;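 further: ATP exposure 15 min at 22 °C before imaging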
Assay: switch fluorescence ratio, 500 uM ATP over buffer (Cy3 cluster intensity, sum of 5 cycles each) (fold (ratio)); higher = stronger signal-on switching upon ATP binding; sequences stand for … in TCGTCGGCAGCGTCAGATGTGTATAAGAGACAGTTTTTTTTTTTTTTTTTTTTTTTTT…TC
Conditions: aptamer strand: ATP DNA aptamer (quencher-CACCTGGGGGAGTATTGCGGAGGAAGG + anchor), 100 nM annealed; ATP concentration: 500 uM
Decision: switch fluorescence ratio >= 1 yields t, all other cases yield f.

Past entries and their recorded results:
TTTTCTTTAT: t
GCATCAGGAG: t
TTTTGAGTGA: f

Form field: switch fluorescence ratio at least 1? Entry: AAATCTCATC
t

Kindly determine if switch fluorescence ratio recorded for TATCCGACAT is above or exactly 1.
t

Say whether TTGCTAAAGG shows switch fluorescence ratio of 1 or more.
f

In plain terms: is recorded switch fluorescence ratio at least 1 for CCCCTGGAAT ?
t

Assess whether reported switch fluorescence ratio for CCGTTGTGAA sits at 1 or higher.
t

---

Test system: ATP;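 further: ATP exposure 15 min at 22 °C before imaging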
Assay: switch fluorescence ratio, 500 uM ATP over buffer (Cy3 cluster intensity, sum of 5 cycles each) (fold (ratio)); higher = stronger signal-on switching upon ATP binding; sequences stand for … in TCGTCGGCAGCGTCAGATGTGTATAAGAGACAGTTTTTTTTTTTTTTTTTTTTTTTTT…TC
Conditions: aptamer strand: ATP DNA aptamer (quencher-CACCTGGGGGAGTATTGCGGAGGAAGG + anchor), 100 nM annealed; ATP concentration: 500 uM
Consider the following sequences and their measured switch fluorescence ratio readings.
Just the number, please, no unit after it.

A selection of reference data follows.
AAACTAAGTT: 1.04
ATTAGACTTG: 1.01
TGCGACTGGT: 0.942
TGGCTTTTAT: 0.951
GTCAAAAAGT: 0.985
GATCGGCTTG: 0.984

Shifting focus to the sequence that follows.
Fill in switch fluorescence ratio for record GCTTTTTGTC
1.06

---

Below, each of the sequences is paired with its reported switch fluorescence ratio value.
System: ATP;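 further: ATP exposure 15 min at 22 °C before imaging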
Assay: switch fluorescence ratio, 500 uM ATP over buffer (Cy3 cluster intensity, sum of 5 cycles each) (fold (ratio)); higher = stronger signal-on switching upon ATP binding; sequences stand for … in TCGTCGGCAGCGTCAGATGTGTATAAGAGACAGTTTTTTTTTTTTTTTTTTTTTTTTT…TC
Conditions: aptamer strand: ATP DNA aptamer (quencher-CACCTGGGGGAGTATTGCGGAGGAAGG + anchor), 100 nM annealed; ATP concentration: 500 uM
Answer with a number only.

TGCATTCATT: 0.994
TAAGTCCCCA: 1.01
ACTGCTTGGT: 0.996
ATACAAGGCT: 1.02
TAAAACTAAA: 0.998
GGGGGCGGAG: 0.992
GTGGGATCCG: 0.998
GATGGGGGGG: 1
ATCGGTGAAG: 0.992
TGGGATTGTA: 0.987

Here's the next entry for you.
Recall and state the measured switch fluorescence ratio for ATTAATATGT .
0.999

---

switch fluorescence ratio for assorted sequences
Test system: ATP;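 further: ATP exposure 15 min at 22 °C before imaging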
Experiment: switch fluorescence ratio, 500 uM ATP over buffer (Cy3 cluster intensity, sum of 5 cycles each) (fold (ratio)); higher = stronger signal-on switching upon ATP binding; sequences stand for … in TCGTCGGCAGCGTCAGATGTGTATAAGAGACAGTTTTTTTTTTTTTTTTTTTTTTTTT…TC
Details: aptamer strand: ATP DNA aptamer (quencher-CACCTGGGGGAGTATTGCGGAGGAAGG + anchor), 100 nM annealed; ATP concentration: 500 uM
Give a plain numeric answer without units written out.

The cases that follow already have their switch fluorescence ratio on record.
TGCGAATTAG: 0.998
TTCATTTTGC: 1.02
TTCAGGTCGT: 0.992
TTTGATCACG: 1.02
ACCTAAAGGA: 1.02

Please supply the value of reported switch fluorescence ratio for the item CGGGGCCTTT
1.02

Output measured switch fluorescence ratio for this item: GGTGACGCTG
0.992

Fill in switch fluorescence ratio for record CTAAAGGAAG
1.01

Answer with the recorded switch fluorescence ratio of GGGAAATTAT only.
0.992

# return recorded switch fluorescence ratio for entry GGGGCTTATT
0.975

Using the record for AAAGACATCT , state its measured switch fluorescence ratio.
1.02

---

Tested on: ATP;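 further: ATP exposure 15 min at 22 °C before imaging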
Assay: switch fluorescence ratio, 500 uM ATP over buffer (Cy3 cluster intensity, sum of 5 cycles each) (fold (ratio)); higher = stronger signal-on switching upon ATP binding; sequences stand for … in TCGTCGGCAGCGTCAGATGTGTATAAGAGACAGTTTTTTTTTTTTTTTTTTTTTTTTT…TC
Conditions: aptamer strand: ATP DNA aptamer (quencher-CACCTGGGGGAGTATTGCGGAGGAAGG + anchor), 100 nM annealed; ATP concentration: 500 uM
quantityKind: switch fluorescence ratio
Response field accepts a number only; no unit should be typed.

CGATATAGGA: 0.992
GTTTAGGGTT: 1.02

Check ATP data and give switch fluorescence ratio for TGCATTTAGG .
1.02

Look up and report switch fluorescence ratio, with ATP as system, for GACTTAATGG
0.962

Fill: switch fluorescence ratio (ATP) for this sequence ATAGATCATC
1.05

Recall the reported switch fluorescence ratio of TTTGTAGTAT when tested on ATP.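 Further: ATP exposure 15 min at 22 °C before imaging.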
1.03

Provide measured switch fluorescence ratio on ATP for ACGCGGAGTA please.
0.997

Find switch fluorescence ratio for TTGCATCGGG on ATP and write it down.
0.989

Given TCGCTTTACT , report its switch fluorescence ratio on ATP.
3.87

Name the value of switch fluorescence ratio reported for GTGTTGCGGC when tested on ATP.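 Further: ATP exposure 15 min at 22 °C before imaging.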
0.986

State switch fluorescence ratio on ATP. Entry: TTTTTACTTT
1.05

Look up and report switch fluorescence ratio, with ATP as system, for ACCAGGATGC
1.23

Answer briefly: switch fluorescence ratio recorded on ATP for AAGATGAGTA
0.982

State the measured switch fluorescence ratio (ATP) of GTTTTCACTC
1.01

Lab note: record switch fluorescence ratio of GAATGAGTCT tested on ATP.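 Further: ATP exposure 15 min at 22 °C before imaging.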
1.01

Print ATP switch fluorescence ratio for ATCGTTTACG .
0.994

Provide switch fluorescence ratio, tested on ATP, for CGAAGGTTAG .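 Further: ATP exposure 15 min at 22 °C before imaging.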
0.987

For ATP, give switch fluorescence ratio of the listed sequence: CGCGAATTTG
1.02

Specify switch fluorescence ratio for GAGTGAGTCG , system ATP.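 Further: ATP exposure 15 min at 22 °C before imaging.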
0.981

Please look at TCGGGTATGG and tell me its recorded switch fluorescence ratio on ATP.
1.01

Give the observed switch fluorescence ratio of GTGGCATGGG for ATP.
1

Report value: switch fluorescence ratio, system: ATP, sequence: GGCCCTGCGA;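 further: ATP exposure 15 min at 22 °C before imaging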
1.06

Answer briefly: switch fluorescence ratio recorded on ATP for CGATCCAGTG
1.39

Report the value of switch fluorescence ratio obtained on ATP for GTTGTCTTTG .
1.01
